Each entry below carries its reported inhibition.
molecular target: Cytochrome P450 2C9 (Homo sapiens); assay: blockers of cytochrome P450 2C9 activity – biochemical, luminescence, ADME assay, primary screen (AID 777); conditions: CYP2C9 Supersomes, luciferin-H conversion, at 5 µM, stronger effect = higher value
The whole screen tested about 96,000 compounds, of which about 19,000 (20%) were called active. Only a sample is shown.

| molecule | subjectOfTest | inhibition, % |
| --- | --- | --- |
| Cc1ccc(Cn2nnnc2CN2CCC(n3nnc4ccccc43)CC2)cc1 | Cytochrome P450 2C9 (Homo sapiens) | 93.4 |
| Fc1ccc(N2CCN(Cc3ccc4c(c3)OCO4)CC2)cc1 | Cytochrome P450 2C9 (Homo sapiens) | 14.2 |
| CN1CCN(C(=O)COc2ccc(C(C)(C)C)cc2Br)CC1 | Cytochrome P450 2C9 (Homo sapiens) | -18 |
| Cc1ccc(C)c(NC2=NCCCS2)c1 | Cytochrome P450 2C9 (Homo sapiens) | -2.6 |
| O=C(COc1ccc2ccccc2c1)N1CCN(Cc2ccncc2)CC1 | Cytochrome P450 2C9 (Homo sapiens) | 90.5 |
| CCC/C(=N\O)c1c[nH]c2ccccc12 | Cytochrome P450 2C9 (Homo sapiens) | 10.1 |
| Cc1nc2ccccn2c1P(=S)(N1CCCCC1)N1CCCCC1 | Cytochrome P450 2C9 (Homo sapiens) | 11.7 |
| COc1ccccc1-n1c(O)c(C=NC2CC2)c(=O)[nH]c1=O | Cytochrome P450 2C9 (Homo sapiens) | -3.5 |
| CC(=O)N1CN2CN(C(C)=O)CC(C(=O)c3ccc(Br)cc3)(C2)C1 | Cytochrome P450 2C9 (Homo sapiens) | -14.6 |
| Cc1cccc(N2C(=O)NC(=O)/C(=C\c3cnn(-c4ccccc4)c3)C2=O)c1 | Cytochrome P450 2C9 (Homo sapiens) | -9.5 |
| Cn1c(O)c(C=Nc2ccc3c(c2)CCC3)c(=O)n(C)c1=O | Cytochrome P450 2C9 (Homo sapiens) | 11.5 |
| CN1CCN(Cc2ccccc2C(F)(F)F)CC1 | Cytochrome P450 2C9 (Homo sapiens) | 0.4 |
| O=C1/C(=C\c2ccc3c(c2)OCO3)N2CCC1CC2 | Cytochrome P450 2C9 (Homo sapiens) | 22.5 |
| CCCC(C)n1[nH]c(=O)c2c1NC(=O)CSC2c1ccc(OC)c(OC)c1 (stereo not given) | Cytochrome P450 2C9 (Homo sapiens) | 1.7 |
| Cc1nc2nc(C)c(CCC(=O)N3CCC4(CC3)OCCO4)c(C)n2n1 | Cytochrome P450 2C9 (Homo sapiens) | 3.8 |
